- target_entity: human NaV1.6 (hNaV1.6) (Homo sapiens, UniProt Q9UQD0)
- Construct: expressed in transfected cells; host or cells: HEK-293
- Sequence (Q9UQD0 whole entry): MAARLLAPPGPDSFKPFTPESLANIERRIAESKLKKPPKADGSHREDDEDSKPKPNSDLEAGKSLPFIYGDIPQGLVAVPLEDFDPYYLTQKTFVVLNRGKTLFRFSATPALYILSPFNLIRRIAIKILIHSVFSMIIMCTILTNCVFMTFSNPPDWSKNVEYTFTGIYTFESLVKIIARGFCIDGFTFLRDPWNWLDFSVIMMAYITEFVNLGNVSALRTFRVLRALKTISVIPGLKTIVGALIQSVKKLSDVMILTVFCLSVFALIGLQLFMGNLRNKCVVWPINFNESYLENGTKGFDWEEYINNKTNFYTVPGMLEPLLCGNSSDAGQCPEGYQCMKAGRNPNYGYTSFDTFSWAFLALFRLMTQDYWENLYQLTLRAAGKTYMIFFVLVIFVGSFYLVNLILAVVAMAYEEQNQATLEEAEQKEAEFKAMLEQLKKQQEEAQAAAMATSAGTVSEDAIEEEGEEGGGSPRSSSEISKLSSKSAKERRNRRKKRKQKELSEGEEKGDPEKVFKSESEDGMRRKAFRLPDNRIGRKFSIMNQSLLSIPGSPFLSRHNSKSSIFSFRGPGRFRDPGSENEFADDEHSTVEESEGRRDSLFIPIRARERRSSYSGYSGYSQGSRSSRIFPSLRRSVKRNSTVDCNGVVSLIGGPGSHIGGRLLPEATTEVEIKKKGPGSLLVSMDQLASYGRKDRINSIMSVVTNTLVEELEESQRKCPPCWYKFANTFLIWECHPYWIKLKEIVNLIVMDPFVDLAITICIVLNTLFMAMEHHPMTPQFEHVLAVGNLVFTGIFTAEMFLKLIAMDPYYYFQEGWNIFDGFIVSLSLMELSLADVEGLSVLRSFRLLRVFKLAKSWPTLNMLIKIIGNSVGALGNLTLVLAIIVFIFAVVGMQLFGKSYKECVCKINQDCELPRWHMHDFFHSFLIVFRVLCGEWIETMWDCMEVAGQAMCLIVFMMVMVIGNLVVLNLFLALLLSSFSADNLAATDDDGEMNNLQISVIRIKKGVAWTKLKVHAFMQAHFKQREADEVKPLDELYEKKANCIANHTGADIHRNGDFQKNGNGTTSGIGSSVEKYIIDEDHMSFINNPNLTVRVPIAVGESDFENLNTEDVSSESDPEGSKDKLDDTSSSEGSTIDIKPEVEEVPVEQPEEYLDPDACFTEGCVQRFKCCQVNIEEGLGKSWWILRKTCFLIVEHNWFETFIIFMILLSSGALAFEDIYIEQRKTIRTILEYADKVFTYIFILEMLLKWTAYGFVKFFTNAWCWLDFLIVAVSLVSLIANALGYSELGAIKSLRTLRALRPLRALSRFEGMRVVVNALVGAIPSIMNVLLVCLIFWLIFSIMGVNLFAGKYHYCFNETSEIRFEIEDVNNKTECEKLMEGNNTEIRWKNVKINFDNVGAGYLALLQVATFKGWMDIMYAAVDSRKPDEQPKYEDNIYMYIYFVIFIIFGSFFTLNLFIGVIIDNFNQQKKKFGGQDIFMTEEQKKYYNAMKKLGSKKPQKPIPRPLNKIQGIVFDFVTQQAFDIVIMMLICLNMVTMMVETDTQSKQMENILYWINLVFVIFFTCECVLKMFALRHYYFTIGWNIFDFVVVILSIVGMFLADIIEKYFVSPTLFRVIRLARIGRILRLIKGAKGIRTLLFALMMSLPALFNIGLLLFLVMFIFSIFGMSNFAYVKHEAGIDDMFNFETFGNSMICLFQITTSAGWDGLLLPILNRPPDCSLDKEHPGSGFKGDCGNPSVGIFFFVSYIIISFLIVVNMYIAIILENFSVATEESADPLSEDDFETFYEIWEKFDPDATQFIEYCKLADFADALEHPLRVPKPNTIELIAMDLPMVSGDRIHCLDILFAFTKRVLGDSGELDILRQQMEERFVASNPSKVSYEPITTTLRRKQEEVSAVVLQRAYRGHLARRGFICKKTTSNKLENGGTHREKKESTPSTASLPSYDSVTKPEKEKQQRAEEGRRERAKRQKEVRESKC
- procedure_details: Modulation of late sodium current (INaL), PatchXpress high throughput electrophysiology
- Assay type: cell-based
- condition_context: HEK293, HEK-293 cells expressing recombinant human NaV1.6, late current evoked by 300 nM ATX-II, read-out: NaV 1.6 Assay Data (percent inhibition of INaL at hNaV1.6)
quantity: inhibition at 1 µM

smi | inhibition at 1 µM
CCOC(F)(F)c1nnc2cnc(-c3ccc(OC(F)(F)F)cc3C3CC3)cn12 | > 70%
COC(F)(F)c1nnc2cnc(-c3ccc(OCC(F)(F)F)cc3C)cn12 | 30 to 70%
CCOC(F)(F)c1nnc2cnc(-c3ccc(OC(F)(F)F)cc3COC)cn12 | > 70%
Cc1cc(OC(F)(F)F)ccc1-c1cn2c(C(F)(F)OC(C)C)nnc2cn1 | 30 to 70%
COC(F)(F)c1nnc2cnc(-c3cc(C)c(OC(F)(F)F)cc3F)cn12 | > 70%
COC(F)(F)c1nnc2cnc(-c3ccc(OC(F)(F)F)cc3COC3CC3)cn12 | 30 to 70%
CCOCc1nnc2ccc(-c3ccc(OC(F)(F)F)cc3C)nn12 | < 30%
COC(F)(F)c1nnc2cnc(-c3ccc(OC(F)(F)F)cc3C3CC3)cn12 | > 70%

Let us examine a further case.
Input: Answer with the recorded inhibition at 1 µM of CCOC(F)(F)c1nnc2cnc(-c3ccc(OC(C)C)cc3C)cn12 only.
Output: 30 to 70%

---

- target_entity: human NaV1.6 (hNaV1.6) (Homo sapiens, UniProt Q9UQD0)
- Construct: expressed in transfected cells; host or cells: HEK-293
- procedure_details: Modulation of late sodium current (INaL), PatchXpress high throughput electrophysiology
- Type: cell-based
- condition_context: HEK293, HEK-293 cells expressing recombinant human NaV1.6, late current evoked by 300 nM ATX-II, read-out: NaV 1.6 Assay Data (percent inhibition of INaL at hNaV1.6)
The following compounds are listed with their measured inhibition at 1 µM values.

Some entries whose results are on file:
compound | quantity | value_measured
COC(F)(F)c1nnc2cnc(-c3ccc(OC(C)C)cc3C)cn12 | inhibition at 1 µM | 30 to 70%
COC(F)(F)c1nnc2ccc(-c3ccc(OC(F)(F)F)cc3C)nn12 | inhibition at 1 µM | 30 to 70%
Cc1cc(OC(F)(F)F)ccc1-c1cn2c(COCC3CC3)nnc2cn1 | inhibition at 1 µM | 30 to 70%
COC(F)(F)c1nnc2cnc(-c3ccc(OC(F)(F)F)c(C)c3)cn12 | inhibition at 1 µM | < 30%
CCOC(F)(F)c1nnc2cnc(-c3ccc(OC(F)(F)F)cc3C)cn12 | inhibition at 1 µM | > 70%

Input: Answer with the recorded inhibition at 1 µM of COC(F)(F)c1nnc2cnc(-c3ccc(O[C@@H](C)C(F)(F)F)cc3C)cn12 (single isomer, unassigned) only.
Output: 30 to 70%

Input: Answer with the recorded inhibition at 1 µM of COC(F)(F)c1nnc2cnc(-c3ccc(OC4CC(F)(F)C4)cc3C)cn12 only.
Output: 30 to 70%

Input: Answer with the recorded inhibition at 1 µM of COC(F)(F)c1nnc2cnc(-c3ccc(OC(C)C)cc3)cn12 only.
Output: > 70%

Input: Answer with the recorded inhibition at 1 µM of COCc1cc(OC(F)(F)F)ccc1-c1cn2c(C(F)(F)OC)nnc2cn1 only.
Output: > 70%

Input: Answer with the recorded inhibition at 1 µM of Cc1cc(OC(F)(F)F)ccc1-c1cn2c(C(F)(F)OCC3CC3)nnc2cn1 only.
Output: > 70%

Input: Answer with the recorded inhibition at 1 µM of COC(F)(F)c1nnc2cnc(-c3cc(F)c(OC(F)(F)F)cc3C)cn12 only.
Output: > 70%

Input: Answer with the recorded inhibition at 1 µM of COC(F)(F)c1nnc2cnc(-c3c(C)cc(OC(F)(F)F)cc3F)cn12 only.
Output: 30 to 70%

Input: Answer with the recorded inhibition at 1 µM of COCc1nnc2ccc(-c3ccc(OC(F)(F)F)cc3C)nn12 only.
Output: 30 to 70%

Input: Answer with the recorded inhibition at 1 µM of CCOC(F)(F)c1nnc2cnc(-c3ccc(OC(F)(F)F)c(C)c3)cn12 only.
Output: 30 to 70%

Input: Answer with the recorded inhibition at 1 µM of CCOC(C)(C)c1nnc2cnc(-c3ccc(OC(F)(F)F)cc3C)cn12 only.
Output: < 30%

Input: Answer with the recorded inhibition at 1 µM of CCOC(F)(F)c1nnc2cnc(-c3ccc(O[C@@H](C)C(F)(F)F)cc3C)cn12 (single isomer, unassigned) only.
Output: 30 to 70%

Input: Answer with the recorded inhibition at 1 µM of CCOCc1nnc2cnc(-c3ccc(OC(F)(F)F)cc3C)cn12 only.
Output: 30 to 70%

---

- target_entity: human NaV1.6 (hNaV1.6) (Homo sapiens, UniProt Q9UQD0)
- Construct: expressed in transfected cells; host or cells: HEK-293
- procedure_details: Modulation of late sodium current (INaL), PatchXpress high throughput electrophysiology
- Format: cell-based
- condition_context: HEK293, HEK-293 cells expressing recombinant human NaV1.6, late current evoked by 300 nM ATX-II, read-out: NaV 1.6 Assay Data (percent inhibition of INaL at hNaV1.6)
quantity: inhibition at 1 µM

Some entries whose results are on file:
compound | value_measured
CCOC(F)(F)c1nnc2cnc(-c3ccc(OC(C)C)cc3)cn12 [Compound 25] | > 70%
CCOC(F)(F)c1nnc2cnc(-c3ccc(OC(F)(F)F)cc3COC3CC3)cn12 [Compound 36] | 30 to 70%
COCc1nnc2cnc(-c3ccc(OC(F)(F)F)cc3C)cn12 [Compound 3] | < 30%
CCOC(F)(F)c1nnc2cnc(-c3ccc(OC4CC(F)(F)C4)cc3)cn12 [Compound 37] | > 70%
CCOC(F)(F)c1nnc2cnc(-c3ccc(O[C@H](C)C(F)(F)F)cc3C)cn12 (single isomer, unassigned) [Compound 29] | > 70%
CO[C@@H](C)c1cc(OC(F)(F)F)ccc1-c1cn2c(C(F)(F)OC)nnc2cn1 (single isomer, unassigned) [Compound 32] | < 30%
COCc1cc(OC(F)(F)F)ccc1-c1cn2c(COC)nnc2cn1 [Compound 17] | < 30%
CCOC(F)(F)c1nnc2cnc(-c3ccc(OC4CC(F)(F)C4)cc3C)cn12 [Compound 38] | > 70%
CCc1cc(OC(F)(F)F)ccc1-c1cn2c(C(F)(F)OC)nnc2cn1 [Compound 26] | > 70%
CO[C@H](C)c1cc(OC(F)(F)F)ccc1-c1cn2c(C(F)(F)OC)nnc2cn1 (single isomer, unassigned) [Compound 31] | < 30%

Let us examine a further case.
Input: Answer with the recorded inhibition at 1 µM of Cc1cc(OC(F)(F)F)ccc1-c1cn2c(COCc3ccccc3)nnc2cn1 [Compound 6] only.
Output: > 70%

---

The following molecules are listed with their measured inhibition at 1 µM values.
- target_entity: human NaV1.6 (hNaV1.6) (Homo sapiens, UniProt Q9UQD0)
- Construct: expressed in transfected cells; host or cells: HEK-293
- procedure_details: Modulation of late sodium current (INaL), PatchXpress high throughput electrophysiology
- Format: cell-based
- condition_context: HEK293, HEK-293 cells expressing recombinant human NaV1.6, late current evoked by 300 nM ATX-II, read-out: NaV 1.6 Assay Data (percent inhibition of INaL at hNaV1.6)

molecule | value_measured
COC(F)(F)c1nnc2cnc(-c3ccc(O[C@H](C)C(F)(F)F)cc3C)cn12 (single isomer, unassigned) [Compound 27] | 30 to 70%

Input: Answer with the recorded inhibition at 1 µM of CCOC(F)(F)c1nnc2ccc(-c3ccc(OC(F)(F)F)cc3C)nn12 [Compound 15] only.
Output: < 30%

Input: Answer with the recorded inhibition at 1 µM of COC(F)(F)c1nnc2cnc(-c3ccc(OC(F)(F)F)cc3C)cn12 [Compound 2] only.
Output: > 70%

Input: Answer with the recorded inhibition at 1 µM of Cc1cc(OC(F)(F)F)ccc1-c1cn2c(COC3CC3)nnc2cn1 [Compound 20] only.
Output: 30 to 70%

Input: Answer with the recorded inhibition at 1 µM of Cc1cc(OC(F)(F)F)ccc1-c1cn2c(COCC(C)C)nnc2cn1 [Compound 7] only.
Output: 30 to 70%

Input: Answer with the recorded inhibition at 1 µM of Cc1cc(OC(F)(F)F)ccc1-c1cn2c(C(F)(F)OC3CC3)nnc2cn1 [Compound 12] only.
Output: 30 to 70%
